Each recorded value in this set is attributed to the supplement of paper PMC3334620.

target under test: Pdr3 (UniProt P33200)
Sequence: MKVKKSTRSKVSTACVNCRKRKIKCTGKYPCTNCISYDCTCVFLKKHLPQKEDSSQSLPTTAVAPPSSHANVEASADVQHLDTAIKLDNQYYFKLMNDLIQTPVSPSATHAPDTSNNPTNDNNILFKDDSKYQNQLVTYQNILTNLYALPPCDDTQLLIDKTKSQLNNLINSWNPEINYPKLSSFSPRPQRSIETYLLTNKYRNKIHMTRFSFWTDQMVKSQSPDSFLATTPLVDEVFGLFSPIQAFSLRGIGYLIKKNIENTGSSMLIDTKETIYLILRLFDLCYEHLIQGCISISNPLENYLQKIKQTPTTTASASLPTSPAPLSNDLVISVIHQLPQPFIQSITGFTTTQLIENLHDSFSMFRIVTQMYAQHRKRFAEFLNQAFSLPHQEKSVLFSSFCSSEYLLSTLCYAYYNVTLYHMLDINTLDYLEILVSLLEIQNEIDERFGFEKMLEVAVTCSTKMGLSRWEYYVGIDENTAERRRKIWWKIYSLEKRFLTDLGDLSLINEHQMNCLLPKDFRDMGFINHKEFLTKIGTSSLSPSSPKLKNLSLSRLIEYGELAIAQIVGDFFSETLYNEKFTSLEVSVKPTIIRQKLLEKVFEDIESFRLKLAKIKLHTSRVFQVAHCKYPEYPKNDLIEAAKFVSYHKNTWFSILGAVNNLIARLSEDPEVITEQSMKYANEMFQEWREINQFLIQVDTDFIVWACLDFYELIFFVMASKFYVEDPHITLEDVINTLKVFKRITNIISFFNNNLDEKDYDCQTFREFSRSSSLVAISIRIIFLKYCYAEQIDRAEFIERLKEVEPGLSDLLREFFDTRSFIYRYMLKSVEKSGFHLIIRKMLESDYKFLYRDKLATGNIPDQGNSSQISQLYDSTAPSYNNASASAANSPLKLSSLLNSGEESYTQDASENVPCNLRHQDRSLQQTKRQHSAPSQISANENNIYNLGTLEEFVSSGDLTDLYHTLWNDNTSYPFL
test summary: PBM E-score (8-mer binding enrichment) (E-score (-0.5 to 0.5)); higher = stronger / more preferred TF binding
condition parameters: protein concentration: 200 nM; construct: GST-full length
The full ranking holds about 33,000 sequences; the median of “E-score (-0.5 to 0.5)” is about -0.035, and the highest 2% start at about 0.35. This excerpt belongs to a sample that is enriched for the highest values.
Items are presented alongside their recorded PBM E-score.

Worked cases, answers included:
monomer sequence: ACCGTCAA
PBM E-score: -0.00477
--
monomer sequence: ACCCGTGA
PBM E-score: 0.0325
--
monomer sequence: AGATTGTC
PBM E-score: 0.0868
--
monomer sequence: AAGTGTGT
PBM E-score: -0.187

[in] Field request: PBM E-score | item: ATTTGACC
[out] -0.0303

[in] Field request: PBM E-score | item: GCCGTCAA
[out] -0.048

[in] Field request: PBM E-score | item: TTCCCCAA
[out] -0.0249

[in] Field request: PBM E-score | item: ACCCATGC
[out] -0.0401

[in] Field request: PBM E-score | item: CTCCTCAA
[out] -0.152

[in] Field request: PBM E-score | item: AACTGTAC
[out] -0.229

[in] Field request: PBM E-score | item: ATTTCCAC
[out] 0.131

[in] Field request: PBM E-score | item: CACACCGC
[out] 0.166

[in] Field request: PBM E-score | item: CCCGTCGA
[out] 0.215

[in] Field request: PBM E-score | item: CAGATGCG
[out] -0.126

[in] Field request: PBM E-score | item: GATCCATC
[out] 0.232

[in] Field request: PBM E-score | item: CCTAGGTA
[out] -0.174

[in] Field request: PBM E-score | item: GATTTCCC
[out] 0.143

[in] Field request: PBM E-score | item: TAAACCAA
[out] -0.263

[in] Field request: PBM E-score | item: ATTTCCGC
[out] 0.413

[in] Field request: PBM E-score | item: AAAACTCT
[out] -0.109

[in] Field request: PBM E-score | item: AGCTGTCC
[out] -0.116

[in] Field request: PBM E-score | item: ATTTCCTC
[out] 0.154

----------
target under test: Pdr3 (UniProt P33200)
Sequence: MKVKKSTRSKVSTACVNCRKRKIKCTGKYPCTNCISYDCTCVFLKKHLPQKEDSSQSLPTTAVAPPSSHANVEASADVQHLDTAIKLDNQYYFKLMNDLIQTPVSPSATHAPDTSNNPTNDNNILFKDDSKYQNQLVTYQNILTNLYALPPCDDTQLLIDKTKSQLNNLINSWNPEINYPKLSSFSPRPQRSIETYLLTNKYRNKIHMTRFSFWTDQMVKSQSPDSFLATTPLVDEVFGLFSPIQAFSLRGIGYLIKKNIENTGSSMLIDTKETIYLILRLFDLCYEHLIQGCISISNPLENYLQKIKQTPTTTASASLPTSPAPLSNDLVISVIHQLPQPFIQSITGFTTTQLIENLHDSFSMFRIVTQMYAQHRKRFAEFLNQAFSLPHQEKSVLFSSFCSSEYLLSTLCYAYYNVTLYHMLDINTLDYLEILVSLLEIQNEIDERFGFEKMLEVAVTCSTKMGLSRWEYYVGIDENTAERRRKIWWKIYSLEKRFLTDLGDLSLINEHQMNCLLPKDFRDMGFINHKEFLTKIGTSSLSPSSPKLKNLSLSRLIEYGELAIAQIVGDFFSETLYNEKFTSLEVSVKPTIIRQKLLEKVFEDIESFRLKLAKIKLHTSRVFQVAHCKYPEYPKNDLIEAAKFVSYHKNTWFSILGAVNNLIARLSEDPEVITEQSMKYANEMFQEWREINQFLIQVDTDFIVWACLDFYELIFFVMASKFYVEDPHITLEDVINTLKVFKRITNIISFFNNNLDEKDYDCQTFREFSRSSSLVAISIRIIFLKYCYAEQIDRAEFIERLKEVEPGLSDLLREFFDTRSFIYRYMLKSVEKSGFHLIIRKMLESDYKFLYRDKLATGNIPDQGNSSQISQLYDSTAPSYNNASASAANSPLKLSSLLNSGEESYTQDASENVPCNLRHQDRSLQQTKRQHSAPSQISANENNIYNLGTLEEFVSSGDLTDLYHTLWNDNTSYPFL
test summary: PBM E-score (8-mer binding enrichment) (E-score (-0.5 to 0.5)); higher = stronger / more preferred TF binding
condition parameters: protein concentration: 200 nM; construct: GST-full length
The full ranking holds about 33,000 sequences; the median of “E-score (-0.5 to 0.5)” is about -0.035, and the highest 2% start at about 0.35. What follows is part of a selection rich in the highest values, with near analogues and random picks from the rest.
measure: PBM E-score

[in] Give recorded PBM E-score with Pdr3 (UniProt P33200) for the following sequence: AACCGGCA
[out] 0.158

[in] Give recorded PBM E-score with Pdr3 (UniProt P33200) for the following sequence: GCCCGGCA
[out] 0.225

----------
target under test: Pdr3 (UniProt P33200)
Sequence: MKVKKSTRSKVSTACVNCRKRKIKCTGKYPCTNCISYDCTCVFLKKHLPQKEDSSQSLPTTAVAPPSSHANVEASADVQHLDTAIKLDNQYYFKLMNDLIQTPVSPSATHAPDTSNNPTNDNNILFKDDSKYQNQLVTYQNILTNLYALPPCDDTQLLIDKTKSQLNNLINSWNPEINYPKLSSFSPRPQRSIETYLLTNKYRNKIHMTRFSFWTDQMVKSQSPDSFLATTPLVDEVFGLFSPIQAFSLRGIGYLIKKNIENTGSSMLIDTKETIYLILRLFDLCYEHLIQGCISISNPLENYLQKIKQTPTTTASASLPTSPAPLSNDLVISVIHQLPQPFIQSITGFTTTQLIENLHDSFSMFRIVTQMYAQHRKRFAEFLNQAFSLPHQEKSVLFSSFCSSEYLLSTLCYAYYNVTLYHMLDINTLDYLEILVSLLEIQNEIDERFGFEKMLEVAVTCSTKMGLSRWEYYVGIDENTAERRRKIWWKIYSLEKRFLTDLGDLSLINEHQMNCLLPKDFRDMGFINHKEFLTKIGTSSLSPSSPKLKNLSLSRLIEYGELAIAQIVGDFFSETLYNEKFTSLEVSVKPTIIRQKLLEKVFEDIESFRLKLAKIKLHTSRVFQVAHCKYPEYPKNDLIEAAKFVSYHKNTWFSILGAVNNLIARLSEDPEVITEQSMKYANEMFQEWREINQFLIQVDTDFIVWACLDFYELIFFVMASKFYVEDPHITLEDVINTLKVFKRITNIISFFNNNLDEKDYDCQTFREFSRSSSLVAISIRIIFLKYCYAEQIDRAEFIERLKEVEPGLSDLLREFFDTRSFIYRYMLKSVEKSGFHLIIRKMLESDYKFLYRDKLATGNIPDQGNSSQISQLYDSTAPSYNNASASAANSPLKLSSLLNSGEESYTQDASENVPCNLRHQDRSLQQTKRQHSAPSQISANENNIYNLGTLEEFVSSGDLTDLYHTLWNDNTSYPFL
test summary: PBM E-score (8-mer binding enrichment) (E-score (-0.5 to 0.5)); higher = stronger / more preferred TF binding
condition parameters: protein concentration: 200 nM; construct: GST-full length
Over roughly 33,000 sequences, “E-score (-0.5 to 0.5)” has its median near -0.035; the highest 2% begin near 0.35. The entries come from a sample that favours the highest values as a whole.
Classify by measured PBM E-score: criterion met if it is equal to or exceeds 0.05, criterion not met if it is smaller.

Consider the following illustrative entries.
monomer sequence: GCGGATCC
assigned category: criterion met
--
monomer sequence: ATGGATCA
assigned category: criterion not met
--
monomer sequence: ATGATCTA
assigned category: criterion not met

[in] Form field: PBM E-score at least 0.05? Entry: GAGGATCC
[out] criterion met

[in] Form field: PBM E-score at least 0.05? Entry: CAGGATCC
[out] criterion met

[in] Form field: PBM E-score at least 0.05? Entry: ATGTCTAG
[out] criterion not met

[in] Form field: PBM E-score at least 0.05? Entry: CTTCCTGA
[out] criterion not met

[in] Form field: PBM E-score at least 0.05? Entry: CCCACCGG
[out] criterion met

[in] Form field: PBM E-score at least 0.05? Entry: CTGGATCC
[out] criterion met

[in] Form field: PBM E-score at least 0.05? Entry: CGCAAATA
[out] criterion met

[in] Form field: PBM E-score at least 0.05? Entry: CCACAGCG
[out] criterion not met

[in] Form field: PBM E-score at least 0.05? Entry: ATGCGCAT
[out] criterion met

[in] Form field: PBM E-score at least 0.05? Entry: ATTCCGGA
[out] criterion met
